FYI, the data here is from PubChem BioAssay AID1159580.

experiment: chemical genetic growth profiling, strain panel (AID 1159580);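 further: tested at 20 µM; growth read once vehicle control cultures reached saturation at 30 °C; 1 = growth at the plate median or of vehicle wells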; conditions: S. cerevisiae deletion strains, growth OD, locus YGR252W, strain gcn5, active compounds read low
In all, about 5,500 compounds went through this assay and about 2,000 (36%) were called active. About 18% were inconclusive and are not listed. The list shows a part of the results.
Mark True only for normalized growth values smaller than 0.2; exact matches and larger values are False.

Q: Is normalized growth strictly under 0.2 for the entry CNc1ccc(C(=O)CC(O)CCC(C)C2OC(=O)CC(O)CC(=O)CC(O)CC(O)CC(O)CC(O)CC3(O)CC(O)C(C(=O)OC)C(CC(OC4OC(C)C(O)C(N)C4O)/C=C/C=C/C=C/C=C/C=C/C=C/C=C/C2C)O3)cc1 (stereo unspecified) ?
Result: True

Q: Would you kindly verify if normalized growth of Oc1c(Cl)cc(Cl)c(Cl)c1Cc1c(O)c(Cl)cc(Cl)c1Cl is strictly less than 0.2?
Result: True

Q: Consider the compound COc1cc(C)c2c(=O)cc(-c3ccccc3)oc2c1 . Is its normalized growth strictly less than 0.2?
Result: False

Q: Say whether its normalized growth is strictly beneath 0.2. Entry: CN1CCC[C@@H]1CCO[C@](C)(c1ccccc1)c1ccc(Cl)cc1
Result: False

Q: Determine if C[C@@H]1CC[C@H]2C(C)(C)C3CC12CC[C@@]3(C)O (stereo partly specified) shows normalized growth strictly lower than 0.2.
Result: False

Q: Regarding COc1cc(OC)c2c(=O)cc(-c3ccccc3)oc2c1 , kindly confirm whether its normalized growth is beneath 0.2.
Result: False

---

test: chemical genetic growth profiling, strain panel (AID 1159580);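 further: tested at 20 µM; growth read once vehicle control cultures reached saturation at 30 °C; 1 = growth at the plate median or of vehicle wells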; details: S. cerevisiae deletion strains, growth OD, locus YKR091W, strain srl3, active compounds read low
About 2,000 (36%) of roughly 5,500 compounds were called active. About 18% were inconclusive and are not listed. Some of the results follow.
readoutLabel: normalized growth
Answer with a number only.

Some molecules with recorded normalized growth:
molecule	recordedValue
CC(=O)Oc1ccc2c(c1)CCC1C2CC[C@]2(C)C(=O)CCC12 (some centres undefined)	0.985
CCCCC(=O)O[C@]1(C(=O)CO)CCC2C3CCC4=CC(=O)CC[C@]4(C)C3[C@@H](O)C[C@@]21C (some centres undefined)	0.98
C[C@]12CCC3c4ccc(OC(=O)c5ccccc5)cc4CCC3C1CCC2=O (some centres undefined)	0.986
C[C@]12CCC3c4ccc(O)cc4CCC3C1CCC2=O (some centres undefined)	1.02
COC(=O)[C@@H]1OC(=O)C2OC23[C@@]1(C)CCC1[C@]2(C)C(C[C@@H](O)[C@]13C)C(C)(C)[C@H](OC(C)=O)C[C@@H]2OC(C)=O (some centres undefined)	0.999

Proceeding to the next molecule to report its normalized growth.
Q: Recall and state the measured normalized growth for CN[C@@H]1C(OC2[C@H](O[C@H]3[C@H](O)[C@@H](O)[C@H](N=C(N)N)[C@@H](O)[C@@H]3N=C(N)N)OC(C)[C@]2(O)CO)OC(CO)C(O)C1O (some centres undefined) .
Result: 0.998

---

assay: chemical genetic growth profiling, strain panel (AID 1159580);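 further: tested at 20 µM; growth read once vehicle control cultures reached saturation at 30 °C; 1 = growth at the plate median or of vehicle wells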; details: S. cerevisiae deletion strains, growth OD, locus YDL028C, strain MPS1, active compounds read low
About 2,000 (36%) of roughly 5,500 compounds were called active. Not shown: some 18% with an inconclusive outcome. Some of the results follow.
readoutLabel: normalized growth
Lab note: record just the number, no unit beside it.

Worked cases, answers included:
>>> df
                                        smi  recordedvalue
0  N#CC(C#N)=Cc1c(-c2ccccc2Cl)[nH]c2ccccc12          0.972
1  O=C(Oc1ccc2ccccc2c1C1SCCS1)c1ccc([N+](=O)[O-])o1          0.942

Q: Return reported normalized growth. Input compound: O=S(=O)(Nc1cc(Cl)c(Cl)cc1Cl)c1cc(C(F)(F)F)cc(C(F)(F)F)c1
Result: 0.962

Q: Read the entry CC1=CC(=O)N(c2ccc(OC(F)(F)F)cc2)C1=O and write its reported normalized growth.
Result: 0.857

Q: Look up normalized growth of CC1=CC(=O)N(c2ccc(F)c(Cl)c2)C1=O and report it.
Result: 0.976

Q: For the compound O=S(=O)(NCc1ccc(C(F)(F)F)cc1)c1cccc(C(F)(F)F)c1 , give its measured normalized growth value.
Result: 0.98

Q: Give the reported value of normalized growth for this record: Cc1noc(C)c1S(=O)(=O)Nc1csc(C(F)(F)F)c1-c1ccccc1
Result: 0.973

Q: Give reported normalized growth value for O=S(=O)(NCc1ccc(C(F)(F)F)cc1)c1cc(Br)c(Br)s1
Result: 0.984

Q: Identify measured normalized growth associated with O=S(=O)(NCc1cc(Cl)cc(Cl)c1)c1cc(C(F)(F)F)cc(C(F)(F)F)c1
Result: 0.994

Q: Entry O=S(=O)(Nc1csc(C(F)(F)F)c1-c1ccccc1)c1cc(Br)c(Br)s1 needs its normalized growth filled in; supply it.
Result: 0.935
